# Test Summary: Drug distribution in Sprague-Dawley rat brain at 10 mg/kg, po measured after 8 hrs by LC-MS/MS analysis
# Format: ADME, organism-based
# Details: read-out: Drug uptake
Assay Endpoint: concentration at 8 h (ng/g)
State just the number; it will be interpreted in ng/g.

So what's the measured concentration at 8 h for this one? COc1ccc(NS(=O)(=O)c2ccc(N3CCN(Cc4cccc([N+](=O)[O-])c4)CC3)c([N+](=O)[O-])c2)cn1
39.9

---

# Test Summary: Cmax in Sprague-Dawley rat at 10 mg/kg, po measured at 15 to 1440 min by LC-MS/MS analysis
# Format: ADME, organism-based
# Design: time lower 15 min, dose 10 mg/kg, time upper 1440 min, route po
# Details: in vivo
Assay Endpoint: Cmax (ng/mL)
Lab book: enter the figure in ng/mL, no units written.

For the compound shown here, COc1ccc(NS(=O)(=O)c2ccc(N3CCN(Cc4cccc([N+](=O)[O-])c4)CC3)c([N+](=O)[O-])c2)cn1 , give the reported Cmax.
2210

Data credit: ChEMBL document CHEMBL5338758
